# experiment: physchem
# condition-set: pH 7.4

{"columns": ["molecule", "logD"],
 "data": [
  ["Cn1ncc(NC(=O)C2CCCCC2C(=O)c2ccc(-c3cc[nH]n3)cc2)c1C(F)(F)F (centres unmarked)", 3.6],
  ["COc1cc(NC(=O)C2CCCCC2C(=O)c2ccc(-c3cc[nH]n3)cc2)ncn1 (centres unmarked)", 3.9]
]}

---

# experiment: physchem
# condition-set: 25 °C, pH 7.4, aqueous buffer, thermodynamic from solid
The entries below come with measured solubility values attached.

{"columns": ["compound", "solubility [µM]"],
 "data": [
  ["COc1cc(NC(=O)C2CCCCC2C(=O)c2ccc(-c3cc[nH]n3)cc2)ncn1 (centres unmarked)", 22],
  ["Cn1ncc(NC(=O)C2CCCCC2C(=O)c2ccc(-c3cc[nH]n3)cc2)c1C(F)(F)F (centres unmarked)", 80]
]}
